The reader will find reported MCC values listed item by item below.
Assay: Cytotoxicity against rat L6 cells by MTT assay
Type: cell-based

>>> result("CCO[C@H]1[C@@H](CO)O[C@@H](c2ccccc2)O[C@H]1C(SCC)SCC")
"600 µM"
>>> result("CO[C@H]1C(O)OC[C@@H](O)[C@@H]1O (some centres undefined)")
"50000 µM"
>>> result("O[C@@H]1[C@@H](O)[C@H](ON2CCCCC2)OC[C@H]1O")
"1000 µM"

Now look at this entry.
What value of MCC has been reported for the following compound? `CC1(C)OC[C@H]2O[C@@H]3OC(C)(C)O[C@@H]3[C@H]2O1` 100 µM

---

Test: Cytotoxicity against rat L6 cells by MTT assay
Assay type: cell-based
The reader will find reported MCC values listed item by item below.
In your response, put the unit directly after the numeric value.

Observe how each entry below is paired with its result.
>>> result("O[C@H]1OC[C@@H](OCc2ccccc2)[C@H](OCc2ccccc2)[C@H]1OCc1ccccc1")
"200 µM"
>>> result("CCSC(SCC)[C@@H]1O[C@H](c2ccccc2)O[C@@H]2CO[C@H](c3ccccc3)O[C@@H]21")
"50000 µM"

What value of MCC has been reported for the following molecule? `CCCS[C@@H]1OC[C@@H](O)[C@H](O)[C@H]1O` 200 µM
